Data provenance is paper PMC9100651.

molecular target: GABARAP (Homo sapiens, UniProt O95166); assay: MST, SPR
Sequence (O95166 1-116): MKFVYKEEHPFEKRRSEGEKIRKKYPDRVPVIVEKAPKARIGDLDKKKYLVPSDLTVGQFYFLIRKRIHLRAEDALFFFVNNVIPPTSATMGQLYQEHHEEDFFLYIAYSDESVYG

binder | Kd
DATYTWEHLAWP [K1 peptide] | ~3000 nM
